experiment: In vitro effective concentration against beta amyloid protein 40 in ELISA
pEC50: −log10 of the molar value.
Please enter yes where pEC50 is greater than or equal to 5, and no where it is lower.

INSERT INTO measurements (molecule_smiles, cat) VALUES
  ('CCOC(=O)N1CCC(c2ccccc2C)(S(=O)(=O)c2ccccc2)CC1', 'no');

Given the entry CCOC(=O)N1CCC(c2ccccc2OC)(S(=O)(=O)c2ccc(Cl)cc2)CC1 , answer whether its pEC50 meets or surpasses 5.
yes

Given the entry CCOC(=O)N1CCC(c2ccccc2C)(S(=O)(=O)c2ccc(OC)cc2)CC1 , answer whether its pEC50 meets or surpasses 5.
no

Given the entry CCCNC(=O)OC[C@@H](C)N(c1cc(Cl)ccc1CO)S(=O)(=O)c1ccc(Cl)cc1 , answer whether its pEC50 meets or surpasses 5.
yes

Given the entry CCOC(=O)N1CCC(c2ccccc2OC)(S(=O)(=O)c2ccccc2)CC1 , answer whether its pEC50 meets or surpasses 5.
no

Given the entry CCOC(=O)N1CCC(c2ccccc2OC)(S(=O)(=O)c2ccc(OC)cc2)CC1 , answer whether its pEC50 meets or surpasses 5.
no

Given the entry CCOC(=O)N1CCC(c2ccccc2)(S(=O)(=O)c2ccc(OC)cc2)CC1 , answer whether its pEC50 meets or surpasses 5.
no

Given the entry CCOC(=O)N1CCC(c2ccccc2C)(S(=O)(=O)c2ccc(Cl)cc2)CC1 , answer whether its pEC50 meets or surpasses 5.
yes
